Cited source: the supplement of paper PMC12855868

B1: library; numbered along this chain (parent)
chain: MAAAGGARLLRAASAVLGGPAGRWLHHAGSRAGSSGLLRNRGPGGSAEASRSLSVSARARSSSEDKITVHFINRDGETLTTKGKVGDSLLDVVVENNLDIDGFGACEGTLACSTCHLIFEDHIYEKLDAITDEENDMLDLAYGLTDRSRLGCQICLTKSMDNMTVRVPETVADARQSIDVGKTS

- Variants of: B1
- method_summary: scaled log2 fold change in cell abundance, elesclomol vs control (0 = silent mean, 1 = nonsense mean) (scaled log2 ratio); higher = higher viability under elesclomol (loss of FDX1 cuproptosis function);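 further: variant abundance is its share of total variant reads in each endpoint sample, from next-generation sequencing of the integrated ORF PCR-amplified out of genomic DNA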
- setup_conditions: with ABC1 FDX1 KO; elesclomol 5 nM; glucose 10 mM; 14 days
Reported scaled log2 fold change is given for each of the following variants.
Field format: numeric only.

Example variants with recorded scaled log2 fold change:
   mutation_list  observed_result
0           R58E           -0.288
1          D136V            0.459

[ask] Return scaled log2 fold change for the following variant: `L117G`
[reply] 0.483

[ask] Return scaled log2 fold change for the following variant: `V171R`
[reply] -0.31

[ask] Return scaled log2 fold change for the following variant: `A141I`
[reply] -0.168

[ask] Return scaled log2 fold change for the following variant: `R166V`
[reply] -0.116
